# protocol: chemical genetic growth profiling, strain panel (AID 1159580);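 further: tested at 20 µM; growth read once vehicle control cultures reached saturation at 30 °C; 1 = growth at the plate median or of vehicle wells; lower values mean less growth of the strain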
# measurement_parameters: S. cerevisiae deletion strains, growth OD, locus YKL048C, strain ELM1, active compounds read low
Among all 5,500 compounds or so, about 2,000 (36%) were called active. Another 18% or so got no clear call; they are omitted. This is one part of the list.
Measured normalized growth, listed per entry.
reported_metric: normalized growth

compound	reported_metric	value
COC(=O)C1=C(C)NC(C)=C(C(=O)OC)C1c1ccc(Cl)cc1Cl	normalized growth	0.949
CCOC(=O)C1=C(N)OC2=C(C(=O)CC(C)(C)C2)C1c1ccc(Cl)cc1Cl (stereo unspecified)	normalized growth	0.948
CCCc1c(C(=O)NC2Cc3ccccc3C2)cnn1-c1ccccc1	normalized growth	0.982
CSc1ccc(/C=C(\C)[N+](=O)[O-])cc1	normalized growth	0.106
CC(C)c1ccc(NCC(O)CSc2ccccc2)cc1 (stereo unspecified)	normalized growth	0.731
CCCc1c(C(=O)NNc2cccc(Cl)c2)cnn1-c1ccccc1	normalized growth	0.968
O=C(Nc1ccc(C(F)(F)F)cc1)N1CCN(c2ccnc3cc(Cl)ccc23)CC1	normalized growth	0.996
CCCc1c(C(=O)Sc2ccccn2)cnn1-c1ccc(Cl)cc1	normalized growth	0.911
CC(C)c1ccc(N2C=Nc3ccc(C(C)C)cc3C2)cc1	normalized growth	0.995
CSc1cc(-c2ccncc2)nc(-c2cccs2)c1	normalized growth	0.966
FC(F)(F)c1cccc(NC(=S)Nc2ccccc2)c1	normalized growth	1
